I'd be grateful if you could share measured EC50 for these entries.
Molecular target: T1, Peptide G (rat PAR-2), C-terminal biotinylated (Rat (Rattus norvegicus), C-terminal biotin via G4S linker)
T1 construct: also called Peptide G C-Term
T1 peptide: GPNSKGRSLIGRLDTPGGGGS
Test: peptide ELISA titration
// units = pM; emit number, no label

I'd like to know its EC50. The binder in question is H4H584P (antibody, human IgG4, V domains shown, also called H1H584P variable regions) VH: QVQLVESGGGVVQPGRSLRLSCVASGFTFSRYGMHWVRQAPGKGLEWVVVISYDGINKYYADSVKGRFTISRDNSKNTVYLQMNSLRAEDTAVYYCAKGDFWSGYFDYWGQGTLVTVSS VL: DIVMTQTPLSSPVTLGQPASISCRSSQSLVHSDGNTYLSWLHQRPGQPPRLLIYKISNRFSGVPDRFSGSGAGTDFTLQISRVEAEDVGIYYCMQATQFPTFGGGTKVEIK 15

Which measured EC50 value corresponds to H4H581P (antibody, human IgG4, V domains shown, also called mAb H4H581P; H1H581P variable regions) VH: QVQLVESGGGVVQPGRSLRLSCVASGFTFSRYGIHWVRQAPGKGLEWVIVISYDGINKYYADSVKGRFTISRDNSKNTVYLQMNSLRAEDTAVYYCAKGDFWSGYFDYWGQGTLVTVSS VL: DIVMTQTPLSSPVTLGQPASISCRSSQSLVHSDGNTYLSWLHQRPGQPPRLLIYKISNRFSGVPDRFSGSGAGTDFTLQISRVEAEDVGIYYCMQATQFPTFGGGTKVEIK ? 13

Quick one: EC50 of H4H583P (antibody, human IgG4, V domains shown, also called H1H583P variable regions) VH: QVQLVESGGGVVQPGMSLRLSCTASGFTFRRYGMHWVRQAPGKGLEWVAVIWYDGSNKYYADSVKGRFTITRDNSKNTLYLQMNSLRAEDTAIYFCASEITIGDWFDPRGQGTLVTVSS VL: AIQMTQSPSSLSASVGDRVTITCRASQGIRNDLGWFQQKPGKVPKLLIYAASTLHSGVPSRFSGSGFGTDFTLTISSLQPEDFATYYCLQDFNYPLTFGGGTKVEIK ? 630
